Cited source: ChEMBL document CHEMBL5058577

Test system: HEK-293T
Test Summary: Multiplex assay against HEK293T
Format: toxicity, cell-based
Condition Summary: human, 24 h, 1 µM, compound concentration 1 uM, replicate 2
Quantity Kind: Population Hoechst High Intensity Objects (%)

Below, each entry is followed by its recorded Population Hoechst High Intensity Objects (%) result.
Molecule: COc1cc(NC(=O)CCN2CCC(OC(=O)Nc3ccccc3-c3ccccc3)CC2)c(Cl)cc1CNC[C@H](O)c1ccc(O)c2[nH]c(=O)ccc12
Readout Value: 8%
--
Molecule: CN1CCN2c3ncccc3Cc3ccccc3C2C1 (configuration not stated)
Readout Value: 6%
--
Molecule: O=C1COc2nccc(-c3ccccc3F)c2CN1Cc1cc(C(F)(F)F)cc(C(F)(F)F)c1
Readout Value: 8%
--
Molecule: Cc1ccccc1C(=O)Nc1ccc(C(=O)N2CCCC(N(C)C)c3ccccc32)cc1.Cl (configuration not stated)
Readout Value: 4%
--
Molecule: Cc1ccc(F)cc1C(=O)Nc1ccc(C(=O)N2Cc3cccn3Cc3ccccc32)c(Cl)c1
Readout Value: 7%

Per the reported HEK-293T data, Cc1ccc(/C(=C\CN2CCCC2)c2ccccn2)cc1 has Population Hoechst High Intensity Objects (%) of 7%

Per the reported HEK-293T data, CC[C@H]1OC(=O)[C@H](C)[C@@H](O[C@H]2C[C@@](C)(OC)[C@@H](O)[C@H](C)O2)[C@H](C)[C@@H](O[C@@H]2O[C@H](C)C[C@H](N(C)C)[C@H]2O)[C@@]2(C)CC(C)=C(O2)[C@H](C)[C@@H](O)[C@]1(C)O has Population Hoechst High Intensity Objects (%) of 6%

Per the reported HEK-293T data, COc1cc(C(=O)N(CCCc2ccccc2)Cc2ccc(CC(=O)O)cc2)cc(OC)c1C has Population Hoechst High Intensity Objects (%) of 3%

Per the reported HEK-293T data, COc1ccc2c(c1)C(C(=O)N(Cc1ccc(N(C)C)cc1)c1ccc(C(C)C)cc1)CCC2.Cl (configuration not stated) has Population Hoechst High Intensity Objects (%) of 6%

Per the reported HEK-293T data, CNC[C@H](O)c1ccc(O)c(O)c1 [EPINEPHRINE] has Population Hoechst High Intensity Objects (%) of 7%

Per the reported HEK-293T data, CC1(COc2ccc3c(c2)ncn3-c2ccc3cccc(N4CCC(N)CC4)c3n2)COC1 has Population Hoechst High Intensity Objects (%) of 6%

Per the reported HEK-293T data, CSc1ccccc1N1CCN(CCCCCC(=O)NC2CCCc3ccccc32)CC1.Cl (configuration not stated) has Population Hoechst High Intensity Objects (%) of 7%

Per the reported HEK-293T data, C[C@@H]1C[C@H]2[C@@H]3CCC4=CC(=O)C=C[C@]4(C)[C@@]3(F)[C@@H](O)C[C@]2(C)[C@@]1(O)C(=O)CO has Population Hoechst High Intensity Objects (%) of 7%

Per the reported HEK-293T data, N#Cc1c(N)nc(SCc2csc(-c3ccc(Cl)cc3)n2)c(C#N)c1-c1ccc(OCCO)cc1 has Population Hoechst High Intensity Objects (%) of 4%

Per the reported HEK-293T data, Cc1ccc(-c2ccc(F)cc2COc2ccc(CCC(=O)O)cc2)cc1 has Population Hoechst High Intensity Objects (%) of 7%

Per the reported HEK-293T data, CCOc1c2c(c(OCC)c3ncccc13)CN(c1ccc(CS(=O)(=O)NC(=O)Cc3ccccc3OC)cc1C)C2=O has Population Hoechst High Intensity Objects (%) of 3%

Per the reported HEK-293T data, c1cc(OCCCN2CCCCC2)ccc1CN1CCCCC1 has Population Hoechst High Intensity Objects (%) of 3%
